target: HLA-B*44:02 (Homo sapiens, UniProt P01889, A223V/A65T/A93T/A95T/D201E/D98Y/E176V/E187L/E204Q/E69K/G107R/H137Y/K202T/L105A/L119I/N104T/N87E/Q56L/Q94N/R106L/R155S/R180D/S101N/S121R/S35A/S48T/T118I/V36M/W191S/Y140D/Y91S); experiment: MHC binding assay (UV-ligand exchange, β2m ELISA); settings: peptide exchange yield, binding to HLA-B*44:02
ENDPOINT: Peptide exchange

Given item 240 (HELENHSMY; listed as Homo sapiens) [compound 240] , the value recorded as its Peptide exchange is “++” (>20% = ++)

Given item 229 (KESDGFHRF; listed as Homo sapiens) [compound 229] , the value recorded as its Peptide exchange is “+++” (>50 = +++)

Given item 222 (NEISTFHNL; listed as Homo sapiens) [compound 222] , the value recorded as its Peptide exchange is “+++” (>50 = +++)

Given item 202 (KEFNLQNMGL; listed as Homo sapiens) [compound 202] , the value recorded as its Peptide exchange is “+++” (>50 = +++)

Then this substance:
Given item 200 (GEELGFASL; listed as Homo sapiens) [compound 200] , the value recorded as its Peptide exchange is “++” (>20% = ++)

====

target: HLA-B*07:02 (Homo sapiens); test: MHC binding assay (UV-ligand exchange, β2m ELISA); settings: peptide exchange yield, binding to HLA-B*07:02
ENDPOINT: Peptide exchange

Solved entries:
Given item 174 (VPSLQRLML; listed as Homo sapiens) [compound 174] , the value recorded as its Peptide exchange is “+++” (>50 = +++)

Given item 169 (FPTEVTPHAF; listed as Homo sapiens) [compound 169] , the value recorded as its Peptide exchange is “++” (>20% = ++)

Given item 155 (FPYPYAERL; listed as Homo sapiens) [compound 155] , the value recorded as its Peptide exchange is “++” (>20% = ++)

Given item 256 (LPALPQQLI; listed as Homo sapiens) [compound 256] , the value recorded as its Peptide exchange is “+++” (>50 = +++)

Given item 148 (VPDGVSKVL; listed as Homo sapiens) [compound 148] , the value recorded as its Peptide exchange is “++” (>20% = ++)

Given item 151 (VVHPRTLLL; listed as Homo sapiens) [compound 151] , the value recorded as its Peptide exchange is “++” (>20% = ++)

Given item 150 (KPSSKALGTSL; listed as Homo sapiens) [compound 150] , the value recorded as its Peptide exchange is “+++” (>50 = +++)

Given item 145 (RVPSYTLIL; listed as Homo sapiens) [compound 145] , the value recorded as its Peptide exchange is “+++” (>50 = +++)

Then this substance:
Given item 147 (SPIKVPLLL; listed as Homo sapiens) [compound 147] , the value recorded as its Peptide exchange is “+++” (>50 = +++)

====

molecular target: HLA-A*03:01 (Homo sapiens, UniProt P04439); test: MHC binding assay (UV-ligand exchange, β2m ELISA); settings: peptide exchange yield, binding to HLA-A*03:01
ENDPOINT: Peptide exchange

Field Peptide exchange (system: HLA-A*03:01 (Homo sapiens, UniProt P04439)) for entry 64 (STTKLYLAK; listed as Homo sapiens) [compound 64] = “++” (>20% = ++)

Field Peptide exchange (system: HLA-A*03:01 (Homo sapiens, UniProt P04439)) for entry 79 (STNNEGNLK; listed as Homo sapiens) [compound 79] = “++” (>20% = ++)

Field Peptide exchange (system: HLA-A*03:01 (Homo sapiens, UniProt P04439)) for entry 96 (FSLAGALNAGFK; listed as Homo sapiens) [compound 96] = “++” (>20% = ++)

Field Peptide exchange (system: HLA-A*03:01 (Homo sapiens, UniProt P04439)) for entry 75 (QVPTFTIPK; listed as Homo sapiens) [compound 75] = “++” (>20% = ++)

Field Peptide exchange (system: HLA-A*03:01 (Homo sapiens, UniProt P04439)) for entry 68 (ATAYGSTVSK; listed as Homo sapiens) [compound 68] = “++” (>20% = ++)

New cases:
Field Peptide exchange (system: HLA-A*03:01 (Homo sapiens, UniProt P04439)) for entry 102 (IIAKKYFFK; listed as Homo sapiens) [compound 102] = “++” (>20% = ++)

Field Peptide exchange (system: HLA-A*03:01 (Homo sapiens, UniProt P04439)) for entry 86 (KTPSGALHRK; listed as Homo sapiens) [compound 86] = “++” (>20% = ++)

Field Peptide exchange (system: HLA-A*03:01 (Homo sapiens, UniProt P04439)) for entry 104 (STQDTLLIK; listed as Homo sapiens) [compound 104] = “++” (>20% = ++)

Field Peptide exchange (system: HLA-A*03:01 (Homo sapiens, UniProt P04439)) for entry 95 (RLFESSFHY; listed as Homo sapiens) [compound 95] = “+++” (>50 = +++)
